Target: BCAT2 (Homo sapiens)
Sequence (O15382 28-392): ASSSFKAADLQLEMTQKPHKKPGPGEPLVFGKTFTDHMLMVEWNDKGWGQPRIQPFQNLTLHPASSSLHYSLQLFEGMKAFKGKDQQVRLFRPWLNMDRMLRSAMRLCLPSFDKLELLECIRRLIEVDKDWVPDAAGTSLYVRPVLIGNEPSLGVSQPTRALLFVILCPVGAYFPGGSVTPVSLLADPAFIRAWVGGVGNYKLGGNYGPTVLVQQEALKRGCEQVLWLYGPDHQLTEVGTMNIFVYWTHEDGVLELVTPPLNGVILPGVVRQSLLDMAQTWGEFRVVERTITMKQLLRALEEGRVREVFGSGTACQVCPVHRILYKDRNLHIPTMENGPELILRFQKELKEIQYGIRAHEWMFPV
Measurement Protocol: BCAT2 in vitro cell inhibition using engineered A549 cells (KMV cell assay, 13C6-KMV by LC-MS/MS)
Assay type: cell-based
Parameters: The result was an engineered A549 cell line that expressed endogenous BCAT2; endogenous in cells; host or cells: A549 cells with MUT and BCAT1 knocked out by CRISPR/CAS9
Condition Details: average where tested multiple times
pIC50: −log10 of the molar value.
Readout: pIC50

[ask] Dear colleague, I am looking for the recorded pIC50 of the following compound: Cc1cnc(-c2cc3c(cn2)nc(-c2ccccn2)n3[C@@H]2CCC[C@H](NC(=O)c3ccc(Br)s3)C2)o1 [Example 18]
[reply] ≥ 7.00

[ask] Dear colleague, I am looking for the recorded pIC50 of the following compound: CC(C)Cc1nc2cnc(-c3ncccn3)cc2n1[C@@H]1CCC[C@H](NC(=O)c2ncc(Cl)s2)C1 [Example 331]
[reply] ≥ 7.00

[ask] Dear colleague, I am looking for the recorded pIC50 of the following compound: CC(C)Cc1nc2cnc(-c3ccn(C)n3)cc2n1C1CC(O)CC(NC(=O)c2ncc(Cl)s2)C1 (stereo not shown) [Example 210]
[reply] 6.00 to 6.30

[ask] Dear colleague, I am looking for the recorded pIC50 of the following compound: O=C(N[C@H]1CCC[C@@H](n2c(-c3ccccc3F)nc3ccc(-c4ncccn4)cc32)[C@@H]1O)c1ncc(Cl)s1 [Example 466]
[reply] ≥ 7.00
